- system_under_test: VDR (GAL4-DBD/VDR-LBD fusion protein in HEK293T cells) (Homo sapiens, UniProt P11473)
- Construct: the targeting construct (GAL4-DBD/VDR-LBD) fusion protein engineered in a HEK293T cell line containing 7XUAS-bla; host or cells: GeneBLAzer VDR-UAS-bla HEK 293T cells
- Sequence (P11473 127-423 limits assumed): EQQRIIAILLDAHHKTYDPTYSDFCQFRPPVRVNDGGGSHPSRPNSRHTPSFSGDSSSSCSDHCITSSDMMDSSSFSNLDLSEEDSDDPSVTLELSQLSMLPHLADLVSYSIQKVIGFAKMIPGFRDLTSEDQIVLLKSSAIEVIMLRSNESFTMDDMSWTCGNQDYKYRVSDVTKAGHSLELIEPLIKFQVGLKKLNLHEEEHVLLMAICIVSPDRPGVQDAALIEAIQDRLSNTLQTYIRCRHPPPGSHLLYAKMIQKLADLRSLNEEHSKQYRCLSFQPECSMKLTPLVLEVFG
- assay_name: GeneBLAzer cell-based VDR assay (VDR-UAS-bla HEK 293T, beta-lactamase reporter)
- condition_description: agonist or antagonist at VDR; compounds of formula (I) tested as mixture of diastereomers
measured_attribute: Activity

COc1ccc(C2C(C(=O)OCCOc3ccccc3)=C(C)NC3=C2C(=O)CC(c2ccccc2)C3)cc1O (stereo not drawn) | Agonist
CCc1ccc(C2C(C(=O)OCCOc3ccccc3)=C(C)NC3=C2C(=O)CC(c2ccc(OC)cc2)C3)cc1 (stereo not drawn) | Agonist
CCSCCOC(=O)C1=C(C)NC2=C(C(=O)CC(c3ccc(OC)cc3)C2)C1c1ccccc1OC (stereo not drawn) | Agonist
CCSCCOC(=O)C1=C(C)NC2=C(C(=O)CC(c3ccccc3OC)C2)C1c1ccccc1F (stereo not drawn) | Agonist

Sample CCSCCOC(=O)C1=C(C)NC2=C(C(=O)CC(c3ccc(Cl)cc3)C2)C1c1ccccc1OC (stereo not drawn) — what was its Activity? Agonist

Looking for the measured Activity of Cc1cccc(OCC(=O)Nc2ccc(S(=O)(=O)Nc3c(C)cc(C)cc3C)cc2)c1 , can you help? Agonist

Item CCSCCOC(=O)C1=C(C)NC2=C(C(=O)CC(c3ccccc3)C2)C1c1ccccc1 (stereo not drawn) has what recorded Activity? Agonist

Returns the measured Activity for the input compound. Input: Cc1cccc(OCC(=O)Nc2ccc(S(=O)(=O)Nc3ccc(C)cc3C)cc2)c1 Antagonist

Consider the compound shown here: CCOC(=O)C1=C(C)NC2=C(C(=O)CC(c3ccc(Cl)cc3)C2)C1c1ccc(F)cc1 (stereo not drawn) What is its recorded Activity? Agonist

Which value of Activity has been reported for CCSCCOC(=O)C1=C(C)NC2=C(C(=O)CC(c3ccc(Cl)cc3)C2)C1c1ccccc1F (stereo not drawn) in the records? Agonist

---

- system_under_test: VDR (GAL4-DBD/VDR-LBD fusion protein in HEK293T cells) (Homo sapiens, UniProt P11473)
- Construct: the targeting construct (GAL4-DBD/VDR-LBD) fusion protein engineered in a HEK293T cell line containing 7XUAS-bla; host or cells: GeneBLAzer VDR-UAS-bla HEK 293T cells
- assay_name: GeneBLAzer cell-based VDR assay (VDR-UAS-bla HEK 293T, beta-lactamase reporter)
- condition_description: agonist or antagonist at VDR; compounds of formula (I) tested as mixture of diastereomers
measured_attribute: Activity

Worked examples, 10 compounds total:
CCOCCOC(=O)C1=C(C)NC2=C(C(=O)CC(c3ccc(Cl)cc3)C2)C1c1ccc(F)cc1 (centres unmarked) | Agonist
CCOc1cc(C2C(C(=O)OCCSCC)=C(C)NC3=C2C(=O)CC(c2ccc(OC)cc2)C3)ccc1O (centres unmarked) | Agonist
CCOC(=O)C1=C(C)NC2=C(C(=O)CC(c3ccc(OC)cc3)C2)C1c1cccc(O)c1 (centres unmarked) | Antagonist
CCc1ccc(OCC(=O)Nc2ccc(S(=O)(=O)Nc3cc(C)cc(C)c3)cc2)cc1 | Antagonist
CCOC(=O)C1=C(C)NC2=C(C(=O)CC(c3ccc(OC)cc3)C2)C1c1ccc(O)cc1 (centres unmarked) | Antagonist
COc1ccc(NS(=O)(=O)c2ccc(NC(=O)COc3ccccc3C)cc2)cc1 | Antagonist
COCCOC(=O)C1=C(C)NC2=C(C(=O)CC(c3ccc(Cl)cc3)C2)C1c1ccc(C)cc1 (centres unmarked) | Agonist
Cc1cc(C)c(NS(=O)(=O)c2ccc(NC(=O)COc3ccc(Cl)cc3)cc2)c(C)c1 | Agonist
CCSCCOC(=O)C1=C(C)NC2=C(C(=O)CC(c3ccc(Cl)cc3)C2)C1c1cccc(OC)c1 (centres unmarked) | Agonist
Cc1ccc(OCC(=O)Nc2ccc(S(=O)(=O)Nc3c(C)cc(C)cc3C)cc2)cc1 | Agonist

Find the recorded Activity belonging to COCCOC(=O)C1=C(C)NC2=C(C(=O)CC(c3ccc(Cl)cc3)C2)C1c1ccc(Br)cc1 (centres unmarked) and report it. Agonist

Record request: Activity value, item Cc1cc(C)c(NS(=O)(=O)c2ccc(NC(=O)COc3ccc(Cl)cc3Cl)cc2)c(C)c1 Antagonist

I am curious: what Activity value has been reported for CCSCCOC(=O)C1=C(C)NC2=C(C(=O)CC(c3ccc(OC)cc3)C2)C1c1ccccc1F (centres unmarked) ? Agonist

Item COc1ccc(C2CC(=O)C3=C(C2)NC(C)=C(C(=O)OCCOc2ccccc2)C3c2ccccc2)cc1 (centres unmarked) has what recorded Activity? Agonist
